Tested on: SF-295
Assay: Anticancer activity against human SF295 cells after 48 hrs by sulforhodamine B assay
Format: functional
Settings: Homo sapiens, SF-295, 48 h
We label by threshold. Values of GI50 strictly beneath 300 nM are y. Values of 300 nM and up are n.

INSERT INTO measurements (chemical_smiles, category) VALUES
  ('CCCCCCCCCCCCCCCCCC[n+]1ccn(C)c1.[Cl-]', 'n'),
  ('CCCCCCCCCCCCCCCCCC[n+]1ccn(C)c1.O=S(=O)([N-]S(=O)(=O)C(F)(F)F)C(F)(F)F', 'n'),
  ('CCCCCCCCCCCC[n+]1ccn(C)c1.[Cl-]', 'n'),
  ('CCCCCCCCCCCCCCCCCC[n+]1ccn(C)c1.FC(F)(F)C(F)(F)[P-](F)(F)(F)(C(F)(F)C(F)(F)F)C(F)(F)C(F)(F)F', 'y'),
  ('CCCCCCCCCCCCCCCC[n+]1ccn(C)c1.[Cl-]', 'n');
